test_system: Phosphatidylinositol 4,5-bisphosphate 3-kinase catalytic subunit gamma isoform (Homo sapiens, UniProt P48736)
Sequence (P48736 whole entry, canonical isoform): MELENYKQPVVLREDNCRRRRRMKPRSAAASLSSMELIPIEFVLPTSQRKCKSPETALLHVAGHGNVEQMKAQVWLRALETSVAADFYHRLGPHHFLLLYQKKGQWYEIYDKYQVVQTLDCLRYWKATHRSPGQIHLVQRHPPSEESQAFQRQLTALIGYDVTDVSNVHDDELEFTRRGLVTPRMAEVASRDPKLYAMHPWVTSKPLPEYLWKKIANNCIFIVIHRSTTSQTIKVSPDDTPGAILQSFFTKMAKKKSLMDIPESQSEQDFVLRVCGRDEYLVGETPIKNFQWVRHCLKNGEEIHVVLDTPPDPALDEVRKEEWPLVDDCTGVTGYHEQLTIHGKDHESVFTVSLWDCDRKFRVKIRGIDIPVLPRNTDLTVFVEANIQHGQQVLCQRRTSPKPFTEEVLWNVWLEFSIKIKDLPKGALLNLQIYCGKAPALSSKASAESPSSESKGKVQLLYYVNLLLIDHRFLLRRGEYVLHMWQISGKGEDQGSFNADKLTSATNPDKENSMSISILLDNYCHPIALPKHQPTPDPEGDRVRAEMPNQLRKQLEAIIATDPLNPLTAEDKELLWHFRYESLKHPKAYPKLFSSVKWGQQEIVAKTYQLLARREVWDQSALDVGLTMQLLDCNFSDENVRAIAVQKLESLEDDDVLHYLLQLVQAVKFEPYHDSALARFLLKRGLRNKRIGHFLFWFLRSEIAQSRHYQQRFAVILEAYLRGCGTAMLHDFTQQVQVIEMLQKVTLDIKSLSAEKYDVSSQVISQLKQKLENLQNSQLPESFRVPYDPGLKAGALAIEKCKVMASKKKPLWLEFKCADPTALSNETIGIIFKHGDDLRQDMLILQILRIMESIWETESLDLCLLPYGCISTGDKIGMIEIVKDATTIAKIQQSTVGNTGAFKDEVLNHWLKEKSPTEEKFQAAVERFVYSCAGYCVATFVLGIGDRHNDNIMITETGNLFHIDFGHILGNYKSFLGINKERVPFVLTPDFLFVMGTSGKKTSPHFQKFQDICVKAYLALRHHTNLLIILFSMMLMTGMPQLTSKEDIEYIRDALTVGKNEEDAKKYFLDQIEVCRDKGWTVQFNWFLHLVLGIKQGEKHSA
assay_details: Inhibition of human PI3Kgamma after 1 hr by ADP-Glo luminescent assay
test_readout: IC50
Answers without a unit are incomplete; give the number and then its unit.

Data point: CC(=O)Nc1cnc2ccc(-c3cnc4ccccc4c3)cc2c1Nc1ccc(N2CCN(C(C)=O)CC2)c(C(F)(F)F)c1 ; IC50 = 502 nM

* * *

assay_details: cells
condition_description: Homo sapiens, PC-3, 72 h
Lab note: compare IC50 with 3 µM, writing yes if less and no if equal or more.

Problem: Lab log: compare recorded IC50 with 3 µM; is it strictly lower for CS(=O)(=O)Nc1cnc2ccc(-c3cnc4ccccc4c3)cc2c1Nc1ccc(N2CCNCC2)c(C(F)(F)F)c1 ?
Result: no

Problem: API: query returns whether the compound falls strictly under 3 µM in IC50. Query: CC(=O)Nc1cnc2ccc(-c3cnc4ccccc4c3)cc2c1Nc1ccc(C(C)(C)C#N)cc1
Result: yes

Problem: Given the entry CC(C)(C)C(=O)Nc1cnc2ccc(-c3cnc4ccccc4c3)cc2c1Nc1ccc(N2CCNCC2)c(C(F)(F)F)c1 , would its reported IC50 be below 3 µM?
Result: yes

Problem: Consider the compound Cn1c(=O)n(-c2ccc(C(C)(C)C#N)cc2)c2c3cc(-c4cnc5ccccc5c4)ccc3ncc21 . Is its IC50 strictly less than 3 µM?
Result: yes

Problem: Record CC(C)(C#N)c1ccc(Nc2c(NS(C)(=O)=O)cnc3ccc(-c4cnc5ccccc5c4)cc23)cc1 : is its IC50 strictly below 3 µM?
Result: no

Problem: # strict comparison: is reported IC50 < 3 µM? input = Nc1cnc2ccc(-c3cnc4ccccc4c3)cc2c1Nc1ccc(N2CCNCC2)c(C(F)(F)F)c1
Result: no

Problem: Lab log: compare recorded IC50 with 3 µM; is it strictly lower for CC(=O)Nc1cnc2ccc(-c3cnc4ccccc4c3)cc2c1Nc1ccc(N2CCN(C(C)=O)CC2)c(C(F)(F)F)c1 ?
Result: yes

Problem: Dear reviewer, please state whether CC(=O)Nc1cnc2ccc(-c3cnc4ccccc4c3)cc2c1Nc1ccc(N2CCN(S(C)(=O)=O)CC2)c(C(F)(F)F)c1 has IC50 strictly beneath 3 µM.
Result: yes

Problem: is_below(IC50, 3 µM) for CC(=O)Nc1cnc2ccc(-c3cnc4ccccc4c3)cc2c1Nc1ccc(C#N)cc1 ?
Result: no

Problem: Record CC(=O)N1CCN(c2ccc(Nc3c(NC(=O)C(C)(C)C)cnc4ccc(-c5cnc6ccccc6c5)cc34)cc2C(F)(F)F)CC1 : is its IC50 strictly below 3 µM?
Result: no
